B1: TPR t1 (parent)
chain: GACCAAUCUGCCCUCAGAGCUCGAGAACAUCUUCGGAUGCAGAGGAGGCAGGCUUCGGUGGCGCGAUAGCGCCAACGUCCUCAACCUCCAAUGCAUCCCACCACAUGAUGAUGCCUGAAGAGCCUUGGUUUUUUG

variants of: B1; test: polymerase ribozyme fitness, log enrichment relative to wild type (log ratio); higher = more active; in vitro selection for triplet polymerase activity
value kind: polymerase ribozyme fitness (log ratio)

Query string: Entry under review: GACCAAUCCGCCCUCAGAGCUCGAGAACAUCUUCGGAUGCAGAGAAGGCAGGCUUCGGUGGCGCGAUAGCGCCAACGUCCUCAACCUCCAAUGCAUCCCACCACAUGAUGAUGCCUGAAGAGCUUAGGUUUUAUG [U9C G45A C124U U126A U133A] . Reported polymerase ribozyme fitness (log ratio)?
Result string: -0.505

Query string: What value of polymerase ribozyme fitness (log ratio) has been recorded for this entry: GACCAAUCUGCCCUCAGCGCUCGAGAACAUCUUCGGAUGCAGGGGAGGCAGGCUUCGGUGGCGCGAUAGCGCCAACGUCCUCAAGCUCCAAUGCAGCCCACCACAUGAUGAUGCCUGAAGAGCCUUGGUUUUUUG [A18C A43G C85G U96G]
Result string: -4.07

Query string: # polymerase ribozyme fitness (log ratio) lookup, item GACCAAUCUGCUCUCAGAGCUCAAGAACAUCUUCGGAUGCAGAGGAGGCAGGCUUCGGUGGCGCGAUAGCGCCAACGUCCUCAACCUCCAAUGCAUCCCACCACAUGAUGAUGCCUGAAGAGCCUUGGUCUUUUG [C12U G23A U130C]
Result string: -5.34

Query string: Sample GACCAAUCUGCCCUCAGAGCUCGAGAACAUCUUCGGAUGCAGAGGAGGCAGGCUUCGGUGGCGCGAUAGCGCCAACGUCCUCAACCUCCAAUGCAUCCCACCACACGAUGAUGCCUGAAGAGUCUUGGUUUUUUG [U106C C123U] — what was its polymerase ribozyme fitness (log ratio)?
Result string: 0.901
